# TARGET SYSTEM: Drosophila melanogaster histone H3-H4 complex, full-length (Drosophila melanogaster, UniProt P02299 1-136; P84040 1-103)
# ASSAY PROTOCOL: ITC
pKd: −log10 of the molar value.
OUTCOME MEASURE: pKd

1. acidic domain of Homo sapiens APLF (APLF^AD, residues 450 to 511), wild type (domain or fragment) DEDNDNVGQPNEYDLNDSFLDDEEEDYEPTDEDSDWEPGKEDEEKEDVEELLKEAKRFMKRK: 6.10
2. APLF^AD double anchor mutant Y476A/W485A (DA-AB) (domain or fragment) DEDNDNVGQPNEYDLNDSFLDDEEEDAEPTDEDSDAEPGKEDEEKEDVEELLKEAKRFMKRK: 5.69

[P] APLF^AD mutant of Y462 tested by ITC on H3-H4 (domain or fragment) DEDNDNVGQPNEADLNDSFLDDEEEDYEPTDEDSDWEPGKEDEEKEDVEELLKEAKRFMKRK
[Q] APLF^AD double anchor mutant Y462A/F468A (DA-34) (domain or fragment) DEDNDNVGQPNEADLNDSALDDEEEDYEPTDEDSDWEPGKEDEEKEDVEELLKEAKRFMKRK
[R] APLF^AD F468A (protein) DEDNDNVGQPNEYDLNDSALDDEEEDYEPTDEDSDWEPGKEDEEKEDVEELLKEAKRFMKRK
stdin: // smallest pKd at index 0, largest at the end Give the labels in the order requested.
stdout: Q, P, R
(Q: 5.12, P: 5.51, R: 6.01)
